# Subject of test: T1, HLA-A*0201 HLA class I MHC monomer (iTopia Epitope Discovery System, coated on plate) (human)
# T1 construct: Placeholder peptide stripped; also called HLA-A2; MHC class I monomer
# Assay summary: overall rank from iTopia EDS and CEM T2 assays on HLA-A*0201
Would you kindly list RANK F-Score for each of these binders?

// returns reported RANK F-Score for input VLVPPLPSL (Synthetic nonapeptide of human nectin4; the range counts on nectin4) [antigen peptide N4-145 (VLVPPLPSL)]
6

Then LLASFTGRC (Synthetic nonapeptide of human nectin4; the range counts on nectin4; also called Pep N° 21) [Nectin4 peptide 21 (LLASFTGRC)] ?
11

Then VVVGVIAAL (Synthetic nonapeptide of human nectin4; the range counts on nectin4) [Nectin4 peptide 351 (VVVGVIAAL)] ?
5

Then YMDGTMSQV (Control peptide from the literature, tested here; also called tyrosinase peptide) [reference peptide 519 (Tyrosinase), YMDGTMSQV] ?
3

Then NLSASVATV (Control peptide from the literature, tested here) [reference peptide 503 (PR3; Proteinase3), NLSASVATV] ?
9
